Below: a set of entries, each annotated with reported protein stability index.
B1: IRX6 (parent)
chain: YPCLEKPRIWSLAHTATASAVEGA

# Variants of: B1
# assay explanation: protein stability index of a GFP-peptide fusion (GPS, HEK-293T) (PSI 1-6); higher = more stable;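 also: lentivirally expressed fusions sorted by FACS into six bins by GFP to DsRed ratio, PSI derived from sequencing read proportions per bin multiplied by bin number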
# condition summary: c terminus: a fixed tail appended

{"var": "L12T", "protein stability index": 2.72}
{"var": "A20D", "protein stability index": 2.67}
{"var": "P7M", "protein stability index": 2.92}
{"var": "C3S", "protein stability index": 2.46}
{"var": "A20Y", "protein stability index": 4.34}
{"var": "A18K", "protein stability index": 2.59}
{"var": "T17G", "protein stability index": 3.55}
{"var": "A16N", "protein stability index": 3.02}
{"var": "C3L", "protein stability index": 1.86}
{"var": "L4S", "protein stability index": 1.81}
{"var": "A13Y", "protein stability index": 3.33}
{"var": "A16W", "protein stability index": 3.44}
{"var": "P2Q", "protein stability index": 2.98}
{"var": "Y1D", "protein stability index": 3.84}
{"var": "Y1I", "protein stability index": 2.88}
{"var": "H14P", "protein stability index": 2.48}
{"var": "L12V", "protein stability index": 1.58}
{"var": "P2M", "protein stability index": 3.06}
{"var": "I9E", "protein stability index": 3.59}
{"var": "A16H", "protein stability index": 1.77}
{"var": "P2I", "protein stability index": 2.96}
{"var": "A16V", "protein stability index": 4.23}
